Tested on: HCT-15 colon
Experiment: NCI-60 one-dose screen, 48 h (100 = growth as untreated, 0 = no growth, -100 = all killed)
Details: 10 µM unless noted
This is part of a sample that, as a whole, favours compounds with a hit. Of some 83,000 tested, about 20% had one in any assay.
For each of the compounds below, state its growth.
Dear colleague, please return just the value in %, with no unit written.

Tell me the measured growth of N#CCCc1ccccc1 , please.
98.3

And for C/C(=C\c1ccn(-c2ccc(N)cc2F)n1)[C@@H]1C[C@@H]2O[C@]2(C)CCC[C@H](C)[C@H](O)[C@@H](C)C(=O)C(C)(C)[C@@H](O)CC(=O)O1 ?
14

And for O=C(O)c1cc([N+](=O)[O-])cc([N+](=O)[O-])c1 ?
109

And for Cc1nnc([S-])o1.[Au+].c1ccc([PH+](c2ccccc2)c2ccccc2)cc1 ?
8.98

And for COc1cc(C2C3=C(CCCC3=O)N(CCO)c3cc4c(cc32)CCC4)cc(OC)c1OC (stereo unspecified) ?
89.2

And for COc1ccc(N)cc1N ?
102

And for CC1=CC(=Nc2ccc(N(CCCl)CCCl)cc2)C=C(C)C1=O ?
8.95

And for COc1ccc(N(CC(=O)NCCC[Te]c2ccccc2)C(=O)c2ccccc2)cc1 ?
9.28

And for OCCN=Cc1c[nH]c2ccccc12 ?
105

And for O=P(O)(Nc1ccccc1)Nc1ccccc1 ?
119

And for Nc1ccc2c(c1)Cc1cc(N)ccc1-2 ?
85.3

And for CC[C@H](C)[C@H](NC(=O)c1ncccn1)C(=O)N(C)[C@H](C[C@@H](OC(C)=O)c1nc(C(=O)N[C@@H](Cc2ccccc2)C[C@H](C)C(=O)OC)cs1)C(C)C ?
10.3

And for CCOP(=O)(OCC)C(=O)N(CC)CC ?
98.4

And for c1ccc2c(c1)sc1ccccc12 ?
103

And for NC(=O)Oc1cc(OC(N)=O)cc(N(CCCl)CCCl)c1 ?
68.9

And for COc1ccc2c(c1)c(-c1nc(-c3cn(C)c4ncccc34)cs1)cn2CCCCN1CCOCC1 ?
-42.1

And for CC[C@H](C)[C@H]1O[C@]2(C=C[C@@H]1C)C[C@@H]1C[C@@H](C/C=C(\C)[C@@H](O[C@H]3C[C@H](OC)[C@@H](O[C@H]4C[C@H](OC)[C@@H](NC)[C@H](C)O4)[C@H](C)O3)[C@@H](C)/C=C/C=C3\CO[C@@H]4[C@H](O)C(C)=C[C@@H](C(=O)O1)[C@]34O)O2 ?
-70.2

And for O=C(O)CNCP(=O)(O)O ?
123

And for O=S(OO)c1cc(Cl)c(O)c(Cl)c1 (stereo unspecified) ?
99.2

And for CCOC(=O)P(=O)(OCC)OCC ?
101

And for C=CC1CN2CCC1CC2C(O)c1ccnc2ccccc12 (stereo unspecified) ?
116

----------
For each of the compounds below, state its growth.
Test system: HL-60(TB) leukemia
Test: NCI-60 one-dose screen, 48 h (100 = growth as untreated, 0 = no growth, -100 = all killed)
Conditions: 10 µM unless noted
About 83,000 compounds went through this panel and 20% of them were active in at least one assay; those are over-represented in the sample as a whole. Active and inactive are the calls of the source. How the source made its calls: active means growth percent below 10; inactive means the rest.

Param readout = growth; param system = HL-60(TB) leukemia; param query = O=C(O)c1ccccc1N(CCO)CCCl ; response: value
53.8% (inactive)

And for CCC1(CCSC#N)C(=O)NC(=O)NC1=O ?
98.3% (inactive)

And for COc1cc(/C=C\[N+](=O)[O-])ccc1OCc1ccccc1 ?
3.4% (active)

And for O=c1[nH]c(=O)[nH]c(=O)[nH]1 ?
88.8% (inactive)

And for C[C@@]12CCCc3coc(c31)C(=O)c1cc3c(cc12)C(=O)C1=C(NCCS1(=O)=O)C3=O ?
-45% (active)

And for C[C@]12CC[C@H]3[C@@H](C[C@@H]4SC(Nc5ccccc5)=N[C@@]45C/C(=N/O)CC[C@]35C)[C@@H]1CCC2=O ?
70.1% (inactive)

And for O=c1c2ccccc2nc(-c2ccccc2Cl)n1-c1nnc(C(F)(F)F)s1 ?
1.24% (active)

And for COc1cc2c(cc1OC)-c1c3c(cc4c1[C@@H](C2)N(C)CC4)OCO3 ?
32.5% (inactive)

And for COc1cc(C=C2C(=O)NC(=O)NC2=O)ccc1O ?
95.6% (inactive)

And for CCOC(=O)c1ccccc1C(=O)OCC ?
141% (inactive)

And for COc1ccc(N(CC(=O)NCCC[Te]c2ccccc2)C(=O)c2ccccc2)cc1 ?
36.9% (inactive)

And for CCCCS(=O)(=O)Cl ?
105% (inactive)

And for O=C(NC(Cl)=C(Cl)Cl)P(=O)(c1ccccc1)c1ccccc1 ?
110% (inactive)

And for CC1=C([Te]c2ccccc2)C(=O)c2ccccc2C1=O ?
12.7% (inactive)

And for C#COc1cccc(Nc2ncnc3cc(NC(=O)CF)ccc23)c1 ?
54.5% [6.25 µM] (inactive)

And for O=C1c2ccccc2C(=O)N1N1CC1c1ccccc1 (stereo not given) ?
102% (inactive)

And for COC(=O)[C@@H](C)C[C@H](Cc1ccccc1)NC(=O)c1cccc([C@@H](C[C@H](C(C)C)N(C)C(=O)[C@@H](NC(=O)[C@H]2CCCCN2C)C2CC2)OC(C)=O)n1 ?
-38.2% (active)

And for CC[C@H](C)[C@H](NC(=O)[C@H]1CCCCN1C)C(=O)N(C)[C@H](C[C@@H](OC(C)=O)c1cccc(C(=O)N[C@@H](Cc2ccccc2)C[C@H](C)C(=O)OC)n1)C(C)C ?
-42.9% (active)

And for CCOC(=O)C1=C(C)/C(=C\c2[nH]c(C)c(C(=O)OCC)c2C)N=C1C ?
41.6% (inactive)

And for C[C@]12CCC3[C@@H](C[C@@H]4SC(Nc5ccccc5)=N[C@@]45CC(=O)CC[C@]35C)[C@@H]1CCC2=O (stereo not given in full) ?
6.25% (active)

----------
Test system: T-47D breast
Experiment: NCI-60 one-dose screen, 48 h
Conditions: 10 µM unless noted
About 83,000 compounds went through this panel and 20% of them were active in at least one assay; those are over-represented in the sample as a whole. Calls of active or inactive are those of the source. Rule for the calls: active = growth percent below 10; inactive = the rest.
Please reply with one of these outcomes: y for active, n for inactive

What outcome does the record of this test show for CSc1cc(/C=C(\C)[C@@H]2C[C@@H]3O[C@]3(C)CCC[C@H](C)[C@H](O)[C@@H](C)C(=O)C(C)(C)[C@@H](O)CC(=O)O2)n(CCNC(=O)OC(C)(C)C)n1 ?
n

And for CC(Oc1ccc(-c2ccccc2)cc1)C(=O)O (configuration not stated) ?
n

And for COc1cc(C2C3=C(CCCC3=O)N(CCO)c3cc4c(cc32)CCC4)cc(OC)c1OC (configuration not stated) ?
n

And for CC(C)CCC1C(=O)NC(=O)NC1=O ?
n

And for CCCCCCCCCCCCCCCCCC1OCC(COC(=O)O[C@@H](C(=O)O[C@H]2C[C@@]3(O)[C@@H](OC(=O)c4ccccc4)[C@@H]4[C@]5(OC(C)=O)CO[C@@H]5C[C@H](O)[C@@]4(C)C(=O)[C@H](OC(C)=O)C(=C2C)C3(C)C)[C@@H](NC(=O)c2ccccc2)c2ccccc2)O1 (some centres not stated) ?
n

And for Oc1ccccc1C=NCCN=Cc1ccccc1O ?
n

And for CN(C)c1ccc(C=C2C(=O)NC(=O)NC2=O)cc1 ?
n

And for CC[C@H](C)[C@H](NC(=O)c1cnccn1)C(=O)N(C)[C@H](C[C@@H](OC(C)=O)c1nc(C(=O)N[C@@H](Cc2ccccc2)C[C@H](C)C(=O)OC)cs1)C(C)C ?
n

And for Cc1c2ccncc2c(C)c2c1[nH]c1ccccc12 ?
y

And for CCOC(=O)C1C(C=C(C)C)C1(C)C (configuration not stated) ?
n

And for O=C(NC1=NCC[Se]1)c1ccccc1O ?
n

And for CCCCOC(N)=O ?
n

And for C[C@]12CC[C@H]3[C@@H](CC=C4c5nc(N)sc5CC[C@@]43C)[C@@H]1CC[C@@H]2O ?
n

And for COc1ccc(N)cc1OC ?
n

And for COc1cc2c(cc1OC)-c1c3c(cc4c1[C@@H](C2)N(C)CC4)OCO3 ?
n

And for C=CC[PH+](c1ccccc1)c1ccccc1.C=CC[PH+](c1ccccc1)c1ccccc1.[Pt+2].[S-]c1nc2ccccc2[nH]1.[S-]c1nc2ccccc2[nH]1 ?
y

And for C[C@]12CC[C@@H](OC(=O)N(CCCl)N=O)C[C@@H]1CC[C@@H]1[C@@H]2CC[C@]2(C)C(=O)CC[C@@H]12 ?
n

And for CC[C@H](CC[C@@H](C)[C@H]1CC[C@H]2[C@@H]3CC[C@H]4C[C@]5(CC[C@]4(C)[C@H]3CC[C@]12C)OO[C@](C)(C(F)(F)F)O5)C(C)C ?
n

And for O=S(OO)c1cc(Cl)c(O)c(Cl)c1 (configuration not stated) ?
n

And for Cc1ccc(P(=O)(O)O)cc1 ?
n

And for CC1(C)S[C@H]2CC[C@H]3OC(=O)[C@@H]1N23 ?
n

And for C[C@]12CC[C@H](O)C[C@@H]1CC[C@@H]1[C@@H]2CC[C@]2(C)OC(=O)CC[C@@H]12 ?
n

And for NC1CN2CCC1CC2 (configuration not stated) ?
n

And for COc1cc(C=C2C(=O)NC(=O)NC2=O)ccc1O ?
n

And for C#COc1cccc(Nc2ncnc3cc(NC(=O)CF)ccc23)c1 ?
n

And for O=C1C=C(N2CC2)c2ccccc2C1=O ?
n

And for ClC1OC(Cl)(Cl)C(Cl)(Cl)OC1(Cl)Cl (configuration not stated) ?
n

And for C[C@@]12CCCc3coc(c31)C(=O)c1cc3c(cc12)C(=O)C1=C(NCCS1(=O)=O)C3=O ?
y

And for N#CCc1ccc(CC#N)cc1 ?
n

And for Nc1nc(=S)nc(N)[nH]1 ?
n

And for O=CC1(c2ccccc2)CCN(Cc2ccccc2)CC1 ?
n

And for CCOP(=O)(NC)OCC ?
n

And for O=P(O)(Nc1ccccc1)Nc1ccccc1 ?
n

And for O=C1CN2CCC1CC2 ?
n

And for COC(=O)CCP(CCC(=O)OC)c1ccccc1 ?
n

And for COc1c(O)cc2c(c1OC)-c1ccc(SC)c(=O)cc1C(NC(C)=O)CC2 (configuration not stated) ?
n

And for C[N+]1(C)CCCC1c1cccnc1 (configuration not stated) ?
n

And for O=C(O)C1C(C(=O)O)C2(Cl)C(Cl)=C(Cl)C1(Cl)C2(Cl)Cl (configuration not stated) ?
n

And for O=[N+]([O-])c1ccc(CI)cc1 ?
n

And for CC[C@H](C)[C@H](NC(=O)C12CC(NC)(C1)C2)C(=O)N(C)[C@H](C[C@@H](OC(C)=O)c1nc(C(=O)N[C@@H](Cc2ccccc2)C[C@H](C)C(=O)OC)cs1)C(C)C ?
n

And for N[C@@H](CCC(=O)CCl)C(=O)O ?
n

And for Cn1cc(-c2csc(-c3cn(CCCCN4CCOCC4)c4ccc(F)cc34)n2)c2cccnc21 ?
n
